Procedure Summary: Hum MS stability (human microsomal stability half-life)
Condition Summary: human microsomes
Property: half-life (h)
Give bare numbers, in h.

// below: answered compounds
[[record]]
input_smiles = "CC(=O)N1CC[C@H](N2CCC(c3nn(C)c4ccc(-c5nc6cc(C)c([C@H](OC(C)(C)C)C(=O)O)c(-c7ccc(Cl)cc7)c6s5)nc34)CC2)C1"
units_of_measure = "h"
result_value = 0.533

[[record]]
input_smiles = "Cc1cc2nc(-c3ccc4c(c3)c(N3CCN(CC5CC5)CC3)nn4C)sc2c(-c2ccc(Cl)cc2)c1[C@H](OC(C)(C)C)C(=O)O"
units_of_measure = "h"
result_value = 3.23

[[record]]
input_smiles = "Cc1cc2nc(-c3ccc4c(c3)c(C3CCOCC3)nn4C)sc2c(-c2ccc(Cl)cc2)c1[C@H](OC(C)(C)C)C(=O)O"
units_of_measure = "h"
result_value = 4.15

[[record]]
input_smiles = "Cc1cc2nc(-c3ccc4c(c3)c(N3CC(C)(C)N(C)C3=O)nn4C)sc2c(-c2ccc(Cl)cc2)c1[C@H](OC(C)(C)C)C(=O)O"
units_of_measure = "h"
result_value = 4.48

[[record]]
input_smiles = "Cc1cc2nc(-c3ccc4c(n3)c(C3CCN([C@H]5C[C@@H](O)C5)CC3)nn4C)sc2c(-c2ccc(Cl)cc2)c1[C@H](OC(C)(C)C)C(=O)O"
units_of_measure = "h"
result_value = 2.53

[[record]]
input_smiles = "COCC(COC)N1CC(c2nn(C)c3ccc(-c4nc5cc(C)c([C@H](OC(C)(C)C)C(=O)O)c(-c6ccc(Cl)cc6)c5s4)cc23)C1"
units_of_measure = "h"
result_value = 3.62

[[record]]
input_smiles = "Cc1cc2nc(-c3ccc4c(n3)c(C3CCN(C5CN(C)C5)CC3)nn4C)sc2c(-c2ccc(Cl)cc2)c1[C@H](OC(C)(C)C)C(=O)O"
units_of_measure = "h"
result_value = 0.767

[[record]]
input_smiles = "Cc1cc2nc(-c3ccc4c(c3)c(C3CCN(S(C)(=O)=O)CC3)nn4C)sc2c(-c2ccc(Cl)cc2)c1[C@H](OC(C)(C)C)C(=O)O"
units_of_measure = "h"
result_value = 4.25


For each entry beneath this line, provide reported half-life.
1. Cc1cc2nc(-c3ccc4c(c3)c(C3CCN(C5CS(=O)(=O)C5)CC3)nn4C)sc2c(-c2ccc(Cl)cc2)c1[C@H](OC(C)(C)C)C(=O)O
2. Cc1cc2nc(-c3ccc4c(n3)c(C3CCN(CCN(C)C)CC3)nn4C)sc2c(-c2ccc(Cl)cc2)c1[C@H](OC(C)(C)C)C(=O)O
3. Cc1cc2nc(-c3ccc4c(n3)c(N3CCN([C@H]5C[C@@H](O)C5)CC3)nn4C)sc2c(-c2ccc(Cl)cc2)c1[C@H](OC(C)(C)C)C(=O)O
4. CCOCCN1CCN(c2nn(C)c3ccc(-c4nc5cc(C)c([C@H](OC(C)(C)C)C(=O)O)c(-c6ccc(Cl)cc6)c5s4)cc23)CC1

**A:**
[3.58, 1.2, 2.8, 4.33]

----------
System: HIV-IIIb IN T174I DE
Procedure Summary: Antiviral assay in MT4 cells, HIV-IIIb IN T174I DE virus (from dose escalation passaging)
Assay type: cell-based, HIV-1
Condition Summary: Human immunodeficiency virus 1, IIIB, MT4, 120 h, read-out: T174I DE EC50, MT4 cells, HIV-IIIb IN T174I DE (dose escalation), 5 days, CellTiter-Glo
The class of a record is decided solely by its measured EC50; consult b0 (below 600 nM), b1 (600 nM to below 2000 nM), b2 (2000 nM or more)

Past entries and their recorded results:
[[record]]
molecule = "COCCN1CCC(c2nn(C)c3ccc(-c4nc5cc(C)c([C@H](OC(C)(C)C)C(=O)O)c(-c6ccc(Cl)cc6)c5s4)cc23)CC1 [Compound 125]"
class = "b1"

[[record]]
molecule = "Cc1cc2nc(-c3ccc4c(c3)c(C3CCN(C5CN(C(C)C(F)(F)F)C5)CC3)nn4C)sc2c(-c2ccc(Cl)cc2)c1[C@H](OC(C)(C)C)C(=O)O (stereo partly drawn) [Compound 8]"
class = "b1"

[[record]]
molecule = "Cc1cc2nc(-c3cnc4c(c3)c(C3CCN(C5CN(C(=O)OC(C)(C)C)C5)CC3)nn4C)sc2c(-c2ccc(Cl)cc2)c1[C@H](OC(C)(C)C)C(=O)O [Compound 116]"
class = "b2"

[[record]]
molecule = "Cc1cc2nc(-c3ccc4c(c3)c(C3CCN(C5CN(C(=O)OC(C)(C)C)C5)CC3)nn4C)sc2c(-c2ccc(Cl)cc2)c1[C@H](OC(C)(C)C)C(=O)O [Compound 28]"
class = "b2"

[[record]]
molecule = "Cc1cc2nc(-c3ccc4c(c3)c(C3CCN(C)C3)nn4C)sc2c(-c2ccc(Cl)cc2)c1[C@H](OC(C)(C)C)C(=O)O (stereo partly drawn) [Compound 63]"
class = "b2"


**Q:** Class (by measured EC50) for COCC(COC)N1CC(c2nn(C)c3ccc(-c4nc5cc(C)c([C@H](OC(C)(C)C)C(=O)O)c(-c6ccc(Cl)cc6)c5s4)cc23)C1 [Compound 61]
**A:** b2

**Q:** Class (by measured EC50) for Cc1cc2nc(-c3ccc4c(c3)c(N3CCN(C)C(=O)C3)nn4C)sc2c(-c2ccc(Cl)cc2)c1[C@H](OC(C)(C)C)C(=O)O [Compound 85]
**A:** b1

**Q:** Class (by measured EC50) for CCn1nc(C2CCN([C@H]3CCN(C(=O)OC)C3)CC2)c2cc(-c3nc4cc(C)c([C@H](OC(C)(C)C)C(=O)O)c(-c5ccc(Cl)cc5)c4s3)ccc21 [Compound 49]
**A:** b0

**Q:** Class (by measured EC50) for Cc1cc2nc(-c3cnc4c(c3)c(C3=CCN(C)CC3)cn4C)sc2c(-c2ccc(Cl)cc2)c1[C@H](OC(C)(C)C)C(=O)O [Compound 105]
**A:** b2

**Q:** Class (by measured EC50) for Cc1cc2nc(-c3ccc4c(c3)c(C3CCN(C[C@@H]5CCN5C)CC3)nn4C)sc2c(-c2ccc(Cl)cc2)c1[C@H](OC(C)(C)C)C(=O)O [Compound 149]
**A:** b0

**Q:** Class (by measured EC50) for CCn1nc(C2CCN(C3COC3)CC2)c2nc(-c3nc4cc(C)c([C@H](OC(C)(C)C)C(=O)O)c(-c5ccc(Cl)cc5)c4s3)ccc21 [Compound 177]
**A:** b0

----------
Assign EC50 to each entry below.
System: HIV-IIIb (wildtype)
Procedure Summary: Antiviral assay in MT4 cells, HIV-IIIb wildtype
Type: cell-based, HIV-1
Condition Summary: Human immunodeficiency virus 1, IIIB, MT4, 120 h, read-out: WT EC50
Method: Antiviral Assay in MT4 Cells […] Assay plates were then maintained in a humidified, 5% CO2 incubator at 37° C. […] Cell lysis was carried out by incubating at room temperature for 10 minutes and then chemiluminescence was read using an Envision plate reader (PerkinElmer). […]
Give bare numbers, in nM.

For each entry beneath this line, provide reported EC50.
1. Cc1cc2nc(-c3ccc4c(c3)c(C3CCN(C5COC5)CC3)nn4C3CC3)sc2c(-c2ccc(Cl)cc2)c1[C@H](OC(C)(C)C)C(=O)O [Compound 38]
2. Cc1cc2nc(-c3ccc4c(c3)c(C3CCN(C5CC(F)(F)C5)CC3)nn4C)sc2c(-c2ccc(Cl)cc2)c1[C@H](OC(C)(C)C)C(=O)O [Compound 155]
3. Cc1cc2nc(-c3ccc4c(c3)c(C3=CCOC3)nn4C)sc2c(-c2ccc(Cl)cc2)c1[C@H](OC(C)(C)C)C(=O)O [Compound 51]
4. Cc1cc2nc(-c3ccc4c(c3)c(N3CCN(CCN5CCOCC5)C3=O)nn4C)sc2c(-c2ccc(Cl)cc2)c1[C@H](OC(C)(C)C)C(=O)O [Compound 83]
5. CCN1CC(c2nn(C)c3ccc(-c4nc5cc(C)c([C@H](OC(C)(C)C)C(=O)O)c(-c6ccc(Cl)cc6)c5s4)cc23)C1 [Compound 58]

**A:**
1: 8; 2: 13; 3: 15; 4: 17; 5: 9

// Cc1cc2nc(-c3ccc4c(c3)c(N3CCN(C)CC3=O)nn4C)sc2c(-c2ccc(Cl)cc2)c1[C@H](OC(C)(C)C)C(=O)O [Compound 87] : EC50 value = 13

----------
System: HIV-IIIb (wildtype)
Procedure Summary: Antiviral assay in MT4 cells, HIV-IIIb wildtype
Format: cell-based, HIV-1
Condition Summary: Human immunodeficiency virus 1, IIIB, MT4, 120 h, read-out: WT EC50
Assign pEC50 to each entry below.
One number for each entry, as −log10 of the molar value.

// below: answered molecules
[[record]]
molecule = "CCC(=O)N1CC(N2CCC(c3nn(C)c4ccc(-c5nc6cc(C)c([C@H](OC(C)(C)C)C(=O)O)c(-c7ccc(Cl)cc7)c6s5)cc34)CC2)C1 [Compound 7]"
result_value = 7.85

[[record]]
molecule = "Cc1cc2nc(-c3ccc4c(c3)c(N3CC[C@@H](N(C)C)C3)nn4C)sc2c(-c2ccc(Cl)cc2)c1[C@H](OC(C)(C)C)C(=O)O [Compound 92]"
result_value = 7.85

[[record]]
molecule = "Cc1cc2nc(-c3ccc4c(c3)c(C3CCN(C(=O)C5CCO5)CC3)nn4C)sc2c(-c2ccc(Cl)cc2)c1[C@H](OC(C)(C)C)C(=O)O (stereo partly drawn) [Compound 159]"
result_value = 7.96

[[record]]
molecule = "Cc1cc2nc(-c3ccc4c(c3)c(N3CC(C)(C)NC3=O)nn4C)sc2c(-c2ccc(Cl)cc2)c1[C@H](OC(C)(C)C)C(=O)O [Compound 121]"
result_value = 7.41

[[record]]
molecule = "CC(=O)N1CC(N2CCC(c3nn(C)c4ncc(-c5nc6cc(C)c([C@H](OC(C)(C)C)C(=O)O)c(-c7ccc(Cl)cc7)c6s5)nc34)CC2)C1 [Compound 120]"
result_value = 8.52


Switching to the query record.
// Cc1cc2nc(-c3ccc4c(n3)c(C3CCN([C@@H]5CCN(C)C5)CC3)nn4C)sc2c(-c2ccc(Cl)cc2)c1[C@H](OC(C)(C)C)C(=O)O [Compound 171] : pEC50 value = 8.30
